# ASSAY_NOTES: Cmax in ICR mouse at 1 mg/kg, iv single administration measured for 24 hrs post treatment by LC-MS/MS analysis
# Assay type: ADME, organism-based
# Set-up: time 24 hrs, dose 1 mg/kg, route iv
# TEST_CONTEXT: in vivo
QUANTITY_KIND: Cmax (ng/mL)
Express it in ng/mL; write the number only.

Request the reported Cmax associated with C=C(c1cc(OC)c(OC)c(OC)c1)c1ccc(OC)c(O)c1NC(=O)CO
871

====

# ASSAY_NOTES: Oral bioavailability in ICR mouse at 10 mg/kg single administration measured for 24 hrs post treatment by LC-MS/MS analysis
# Type: ADME, organism-based
# TEST_CONTEXT: in vivo
QUANTITY_KIND: bioavailability (%)
Express it in %; write the number only.

Request the reported bioavailability associated with C=C(c1cc(OC)c(OC)c(OC)c1)c1ccc(OC)c(O)c1NC(=O)CO
69.5
